This collection of values is drawn from the supplement of paper PMC10567573.

B1: DFFB (parent)
chain: KLNCDPSRIYKPQTRLKRKQPVRK

Variants of: B1
Test: protein stability index of a GFP-peptide fusion (GPS, HEK-293T) (PSI 1-6); higher = more stable;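 note: lentivirally expressed fusions sorted by FACS into six bins by GFP to DsRed ratio, PSI derived from sequencing read proportions per bin multiplied by bin number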
Conditions: c terminus: a fixed tail appended
Entries annotated with measured protein stability index
# output: bare number, no unit

Examples with answers:
T14E    3.28
K17M    3.45
R18W    3.03
K19V    2.96
C4T    3.62
P6Q    3.62

Fill blank: measured protein stability index of the variant `P12F` is ____.
3.38

And the next one, `R18A` ?
2.94

Now consider `K1M` .
2.65

Also check `T14M`
2.64

Repeat with `R18S`
3.37
